A compilation of pKi values for UniProtKB O60674 from the published literature.
pKi: −log10 of the molar value.

I'm curious: which pKi was measured for `CCN(CCC#N)C(=O)c1cc(-c2ncnc3[nH]cc(C)c23)c[nH]1` tested on UniProtKB O60674?
> 7.00

I'm curious: which pKi was measured for `O=C1NCc2nc(-c3c(F)cccc3F)cc(Nc3ccc(N4C[C@H]5COC[C@H]5C4)nc3)c21` tested on UniProtKB O60674?
≤ 6.00

I'm curious: which pKi was measured for `O=C(CNc1ccnc(-c2c[nH]c3ncncc23)n1)NCC(F)(F)F` tested on UniProtKB O60674?
> 6.30

I'm curious: which pKi was measured for `CS(=O)(=O)N1CCC(C(=O)Nc2nc(-c3ncnc4[nH]ccc34)cs2)CC1` tested on UniProtKB O60674?
> 7.00

I'm curious: which pKi was measured for O=C(NCC(F)(F)F)C(Nc1nc(-c2c[nH]c3ncncc23)ncc1F)c1cccnc1 (centres unmarked) tested on UniProtKB O60674?
5.30 to 6.30

I'm curious: which pKi was measured for `N#Cc1cccc(F)c1-c1cc(-n2ccc(NCCO)n2)c2c(n1)CNC2=O` tested on UniProtKB O60674?
7.00 to 8.00

I'm curious: which pKi was measured for `CN(C)CCCN(C)C(=O)c1cc(-c2ncnc3[nH]ccc23)c[nH]1` tested on UniProtKB O60674?
5.30 to 6.30

I'm curious: which pKi was measured for `Nc1nn2cccnc2c1-c1cc(N2CCc3ccccc3C2)ncn1` tested on UniProtKB O60674?
7.00 to 8.00

I'm curious: which pKi was measured for `O=C1NCc2nc(-c3c(F)cccc3F)cc(Nc3ccc(N4C[C@H]5CC[C@@H](C4)O5)cn3)c21` tested on UniProtKB O60674?
7.00 to 8.00

I'm curious: which pKi was measured for `O=C(NC1CC1)c1cc(-c2ncnc3[nH]ccc23)c[nH]1` tested on UniProtKB O60674?
> 7.00

I'm curious: which pKi was measured for `N#CCN(Cc1ccc(F)cc1)C(=O)c1cc(-c2ncnc3[nH]ccc23)c[nH]1` tested on UniProtKB O60674?
> 7.00

I'm curious: which pKi was measured for `CN1CC(S(=O)(=O)N2CCN(c3ccn(-c4cc(-c5c(F)cccc5C#N)nc5c4C(=O)NC5)n3)CC2)C1` tested on UniProtKB O60674?
≤ 6.00

I'm curious: which pKi was measured for `O=C1NCc2nc(-c3c(F)cccc3F)cc(Nc3ccc4cc[nH]c4n3)c21` tested on UniProtKB O60674?
7.00 to 8.00

I'm curious: which pKi was measured for CC(C(=O)OC(C)(C)C)n1cc(-c2ncnc3[nH]ccc23)cn1 (centres unmarked) tested on UniProtKB O60674?
6.30 to 7.00

I'm curious: which pKi was measured for `C[C@H](Nc1cc(C(=O)N2CCC(O)CC2)nc(-c2c[nH]c3ncncc23)n1)C(=O)NCC(F)(F)F` tested on UniProtKB O60674?
5.30 to 6.30

I'm curious: which pKi was measured for CC(C)Oc1ccc(C2Nc3ccccc3-c3ccnc4[nH]cc2c34)cc1 (centres unmarked) tested on UniProtKB O60674?
> 6.60

I'm curious: which pKi was measured for `CC(C)NC(=O)c1cc(-c2ncnc3[nH]ccc23)c[nH]1` tested on UniProtKB O60674?
> 7.00
